Height: recorded values
# System: rice
# protocol-notes: Low temperature assay on rice seedlings
# Type: in vivo
# assay-setup: 0.01 mg/l, 1 °C, 6 days
State the answer as a number, implicitly in cm.

Here's what some known entries look like.
CC[C@@H](C(C)C)[C@@H](O)[C@H](O)[C@@H](C)[C@H]1CCC2C3COC(=O)C4C[C@H](O)[C@H](O)C[C@]4(C)C3CC[C@@]21C (stereo partly drawn) [BR2]    7.2
CC(C)[C@H](C)[C@@H](O)[C@H](O)[C@@H](C)[C@H]1CCC2C3COC(=O)C4C[C@H](O)[C@H](O)C[C@]4(C)C3CC[C@@]21C (stereo partly drawn) [BR1]    7.2
CC(C)C[C@@H](O)[C@H](O)[C@@H](C)[C@H]1CCC2C3CC(=O)C4C[C@H](O)[C@H](O)C[C@]4(C)C3CC[C@@]21C (stereo partly drawn) [BR5]    7.2
C=C(C(C)C)[C@@H](O)[C@H](O)[C@@H](C)[C@H]1CCC2C3COC(=O)C4C[C@H](O)[C@H](O)C[C@]4(C)C3CC[C@@]21C (stereo partly drawn) [BR3]    7.1
CC(C)[C@H](C)[C@@H](O)[C@H](O)[C@@H](C)[C@H]1CCC2C3CC(=O)C4C[C@H](O)CC[C@]4(C)C3CC[C@@]21C (stereo partly drawn) [BR4]    7.1

The record that follows has no Height shown yet.
Notebook: CC(C)(O)CC[C@@H](O)[C@](C)(O)[C@H]1CC[C@@]2(O)[C@@H]3CC(=O)[C@@H]4C[C@@H](O)[C@@H](O)C[C@]4(C)[C@H]3CC[C@]12C [BR6] , Height read as 7.2

* * *

# Tested on: rice
# protocol-notes: Low temperature assay on rice seedlings
# Assay type: in vivo
# assay-setup: 0.0001 mg/l, 1 °C, 9 days
Weight of root: recorded values
State the answer as a number, implicitly in g.

C=C(C(C)C)[C@@H](O)[C@H](O)[C@@H](C)[C@H]1CCC2C3COC(=O)C4C[C@H](O)[C@H](O)C[C@]4(C)C3CC[C@@]21C (stereo partly drawn) [BR3]    3.4

Notebook: CC[C@@H](C(C)C)[C@@H](O)[C@H](O)[C@@H](C)[C@H]1CCC2C3COC(=O)C4C[C@H](O)[C@H](O)C[C@]4(C)C3CC[C@@]21C (stereo partly drawn) [BR2] , Weight of root read as 3.4

Notebook: CC(C)[C@H](C)[C@@H](O)[C@H](O)[C@@H](C)[C@H]1CCC2C3COC(=O)C4C[C@H](O)[C@H](O)C[C@]4(C)C3CC[C@@]21C (stereo partly drawn) [BR1] , Weight of root read as 3.4

Notebook: CC(C)[C@H](C)[C@@H](O)[C@H](O)[C@@H](C)[C@H]1CCC2C3CC(=O)C4C[C@H](O)CC[C@]4(C)C3CC[C@@]21C (stereo partly drawn) [BR4] , Weight of root read as 3.1

Notebook: CC(C)(O)CC[C@@H](O)[C@](C)(O)[C@H]1CC[C@@]2(O)[C@@H]3CC(=O)[C@@H]4C[C@@H](O)[C@@H](O)C[C@]4(C)[C@H]3CC[C@]12C [BR6] , Weight of root read as 3.5

Notebook: CC(C)C[C@@H](O)[C@H](O)[C@@H](C)[C@H]1CCC2C3CC(=O)C4C[C@H](O)[C@H](O)C[C@]4(C)C3CC[C@@]21C (stereo partly drawn) [BR5] , Weight of root read as 3.4
